Field: TGI. Provide a value for each of the molecules that follow.
Tested on: HCT-116 colon
Assay: NCI tumour cell line growth inhibition, 48 h

Query: Query TGI on HCT-116 colon for "COc1ccccc1N=C1SCCN1C(=S)Nc1ccc(S(=O)(=O)/N=C/N(C)C)cc1"
Result: > 100 µM

Query: Requested read-out TGI, target or system HCT-116 colon, entry "CCc1nc(-n2c(-c3ccccc3)nc3ccccc3c2=O)nc(N)c1-c1ccc(Cl)cc1"
Result: > 100 µM

Query: Can you look up TGI on HCT-116 colon for "CN1B(c2ccccc2)N(C)C(=O)N(C)C1=O" ?
Result: > 100 µM

Query: Param readout = TGI; param system = HCT-116 colon; param query = "Cc1cc(O)cc2c1c(=O)c1ccccc1n2C" ; response: value
Result: > 100 µM

Query: # returns recorded TGI (system: HCT-116 colon) for "ClCC#CCSc1ncnc2c1ncn2CC#CCCl"
Result: 2.93 µM

Query: Form field: TGI recorded for CCCCCCCCCCSCC(CO)NC(=O)/C=C/c1c(C)[nH]c(=O)[nH]c1=O (stereo unspecified) with HCT-116 colon (enter value)
Result: > 50 µM

Count: 5. Required value per item: TGI.
1. COc1ccc2[nH]c(O)c(/C=c3/cc4c(c(-c5ccc(F)cc5)n3)=Nc3ccccc3-4)c2c1
2. CC1CN=C(c2ccc(COc3ccc(C4=NCC(C)N4)cc3)cc2)N1 (stereo unspecified)
3. CCOC(=O)Cc1csc(NC(=O)COC(=O)c2ccc(OC)cc2)n1
4. C[N+](C)([O-])CCCNc1ccnc2cccc([N+](=O)[O-])c12
5. CCN(CC)CCNc1ccc2ncn3c4cc(=O)ccc4c(O)c1c23

Result:
["3.04 µM", "> 100 µM", "> 100 µM", "> 100 µM", "15.5 µM"]

* * *

System: HT29 colon
Test: NCI tumour cell line growth inhibition, 48 h; in the data active = GI50 below about 0.43 µM; inactive = the rest
Permitted responses: active, inactive

Query: # outcome recorded in this test, key = "COc1ccc2c(c1)CC[C@@H]1[C@@H]2CC[C@]2(C)C=C(/C=C/C(=O)c3ccccc3)C[C@@H]12"
Result: inactive

Query: Dear colleague, could you share the recorded outcome for COc1cc([C@@H]2c3cc4c(cc3C(OC3O[C@@H]5COC(C)O[C@H]5[C@H](O)[C@H]3O)C3COC(=O)[C@@H]32)OCO4)cc(OC)c1O (some centres not stated) when you have a moment?
Result: inactive

Query: Recorded test outcome, item "CCOC(=O)c1ccccc1-c1c2ccc(=[N+](C)C)cc-2oc2cc(N(C)C)ccc12"
Result: active

Query: Fill in: this test's call for "Cc1c(C(=O)O[C@H]2[C@@H]3[C@H](C)CC[C@H]3[C@]3(C)O[C@@]2(C2CCCCC2)C[C@H]3OC(=O)CO)ccc2ccccc12" is ___
Result: inactive

Query: Each compound tested received a call. Report the one for "C1CC[N-]CC1.CC(=N\O)/C(C)=N/O.CC(=N\O)/C(C)=N/O.[CH2-]CCN1CCOCC1.[Co+2]" .
Result: inactive

More entries:
Query: Recorded call for "O=C(CC(=O)c1ccccc1)c1ccccc1" ?
Result: inactive

* * *

Assign TGI to each entry below.
System: EKVX NSCLC
Assay: NCI tumour cell line growth inhibition, 48 h

Previously resolved entries follow.
Query: Recorded TGI for "Cc1ccc2c(c1)C(=O)c1c-2n(CCCN=[N+]=[N-])c(=O)c2cc([N+](=O)[O-])ccc12" , please?
Result: > 100 µM

Query: Any idea what TGI was measured for "NS(=O)(=O)c1ccc(NC(=O)Nc2ccccc2F)cc1" ?
Result: > 100 µM

Query: Any idea what TGI was measured for "Cc1cc(O)c(C(C)C)cc1N=Cc1ccccc1O" ?
Result: 26.8 µM

Query: Consider the compound "O=S(=O)(O)ONC1=NCCN1" and give its measured TGI.
Result: > 100 µM

Query: If you can, please state the reported TGI value of "NS(=O)(=O)c1ccc(NC(=O)COC(=O)c2cccc3c(=O)c4ccccc4[nH]c23)cc1" .
Result: > 100 µM

Query: What does the data say about its TGI? Entry: "C#CCN(Cc1nc2cc(C(F)(F)F)ccc2nc1-c1ccccc1)c1ccc(F)c(F)c1"
Result: 57.2 µM

Batch request: TGI per item, same order as input.
1. Cc1cc(C)c(N=Nc2c(O)c(S(=O)(=O)O)cc3cc(S(=O)(=O)O)ccc23)cc1C
2. Cn1ncc(-c2ccc3c(=O)[nH]nc(CN)c3c2)c1-c1c(F)cc2ccccc2c1C#N
3. CCCn1c(N)c(C(=O)CNc2ccc(I)cc2)c(=O)[nH]c1=O
4. OC(c1ccccc1)(c1cccnc1)C(O)(c1ccccc1)c1cccnc1 (configuration not stated)
5. CCCCCCCCCCSCC(CO)NC(=O)/C=C/c1c(C)[nH]c(=O)[nH]c1=O (configuration not stated)
6. COc1ccccc1NCC(=O)Nn1c(C)nc2ccc(S(=O)(=O)Nc3ccccc3OC)cc2c1=O
7. COC(=O)[C@]12CC[C@@H](C)[C@H](C)[C@@H]1C1=CC[C@@H]3[C@@]4(C)CC(=O)[C@H](OC(=O)c5ccco5)[C@@]5(C)COC(=C45)C[C@@]3(C)[C@]1(C)CC2
8. COC(=O)Cc1nc2ccccc2o1

Result:
["> 100 µM", "25.1 µM", "> 100 µM", "> 100 µM", "> 42.3 µM", "> 100 µM", "> 100 µM", "> 100 µM"]

Record TGI for all entries; do not skip any.
1. CC1=CC(=O)/C(=C/n2c(=S)[nH]c3ccccc32)C(=O)O1
2. O=[N+]([O-])c1cc(Cl)ccc1S(=O)(=O)N1CCCc2cc(Cl)ccc21
3. CCCCNC(=S)Nc1nc(C(=O)NNC(=O)c2ccccc2)cs1
4. CN(C)CCn1nc(N)c2nc3cc(C(F)(F)F)ccc3nc21
5. COc1ccc2c(c1)CC[C@@H]1[C@@H]2CC[C@]2(C)C=C(/C=C/C(=O)c3ccccc3)C[C@@H]12

Result:
> 100 µM
> 100 µM
> 100 µM
> 100 µM
32.3 µM

Below is a list of compounds. For each, state its recorded TGI.
1. O=C(CC(=O)c1ccccc1)c1ccccc1
2. C#CCN(C)C(=O)N(CC#C)N=O
3. CC1=C(C(=O)Nc2ccccc2)C(c2ccc(C(C)C)cc2)C(C(=O)Nc2ccccc2)=C(C)N1
4. COc1ccc2nc3cccc(C(=O)NCCN(C)C)c3nc2c1
5. CCOC(=O)NC(=O)c1c[nH]c(=O)[nH]c1=O

Result:
1. 38 µM
2. > 100 µM
3. > 88 µM
4. 12.7 µM
5. > 100 µM

Take each entry in turn and give its TGI.
1. COC(=O)[C@H](CCSC)NC(=O)c1ccc(CNC(=O)/C(C)=C/c2ccccc2)cc1
2. COC(=O)C1C2CC3C(OC(=O)C31)C2OC(=O)[C@](OC)(c1ccccc1)C(F)(F)F (some centres not stated)

Result:
1. > 100 µM
2. > 100 µM

Each compound below has a reported value. Please supply its TGI.
1. COc1cc(C=O)cc(C=Nc2ccc(S(N)(=O)=O)cc2)c1O
2. Cc1cc(S(=O)(=O)Nc2nc3cc(Cl)ccc3o2)c(SCc2ccccc2)cc1Cl
3. C=CCCC(=O)N1C=CC(=O)[C@H](O)[C@@H]1/C=C/c1ccccc1

Result:
1. > 100 µM
2. 37 µM
3. > 32.5 µM

Please state TGI for every compound in the list that follows.
1. c1ccc(CCn2cncn2)cc1
2. CC1(C)[C@@H](OC(N)=O)C=C[C@]2(C=O)[C@H]3CC[C@]4(C)[C@@H](c5ccc(=O)oc5)[C@@H](Cl)C[C@]4(O)C3=CC[C@@H]12
3. CCCC1(N)CC(OC)OC(C)C1O (configuration not stated)
4. Cn1cc(NC(=O)c2cc(NC(=O)CCCCCCC(=O)Nc3cc(C(=O)Nc4cc(C(=O)NCCC(=N)N)n(C)c4)n(C)c3)cn2C)cc1C(=O)NCCC(=N)N
5. O=C1C[C@H](c2ccc(O)c(O)c2)Oc2cc(O)cc(O)c21

Result:
1. > 100 µM
2. 0.0102 µM
3. > 100 µM
4. > 100 µM
5. > 100 µM

Dear colleague, could you please provide TGI for the compounds listed below?
1. COc1cc2c(cc1OCCCCCOc1cc3c(cc1OC)C(=O)N1CCC[C@H]1CN3)N=C[C@@H]1CCCN1C2=O
2. O=[N+]([O-])c1cc(F)c2cccnc2c1O
3. CC(=O)O[C@H]1CC[C@H]2[C@@H]3CCC(C(C)=O)[C@H](C(=O)O)[C@H]3CC[C@]12C (some centres not stated)
4. NC(N)=NCC(N)C(=O)O (configuration not stated)
5. CC(=O)n1ccc2c(Cl)ncnc21

Result:
["> 100 µM", "> 100 µM", "> 100 µM", "> 100 µM", "> 100 µM"]

// for each compound in input: emit TGI
1. C=CCC(SC)C1=C(C)C(=O)c2ccccc21 (configuration not stated)
2. C=CCC(CNC(=O)OCc1ccccc1)OC(=O)OCc1ccccc1 (configuration not stated)

Result:
> 10 µM
> 100 µM

Query: Please look up its TGI: "N=C(N)SCCc1ccccn1"
Result: > 100 µM
